This collection of values is drawn from ChEMBL document CHEMBL1121642.

Tested on: Human alphaherpesvirus 2
Assay: Tested in vitro for minimum inhibitory activity against Herpes simplex virus type -2 (HSV-2)
Assay type: functional
Recorded log10 of MIC, one value per entry.
Values reflect log10 of reported MIC (µg/mL).

Consider the reported log10 of MIC for these molecules:
molecule: CCc1nn(C)c(CC)c1CCCCCOc1ccc(OC)cc1Cl
target-or-system: Human alphaherpesvirus 2
log10 of MIC: 0.48
//
molecule: COc1ccc(OCCCCCCCc2c(C)nn(C)c2C)c(Cl)c1
target-or-system: Human alphaherpesvirus 2
log10 of MIC: -0.15
//
molecule: CCc1n[nH]c(CC)c1CCCCCCOc1ccc([S+](C)[O-])cc1Cl (configuration not stated)
target-or-system: Human alphaherpesvirus 2
log10 of MIC: 0.48

Next up:
log10 of MIC for `CCc1n[nH]c(CC)c1CCCCCCCOc1ccc(OC)cc1Cl` ?
0.78

====

Recorded log10 MIC, one value per entry.
Tested on: Human alphaherpesvirus 2
Experiment: Tested in vitro for minimum inhibitory activity against Herpes simplex virus type -2 (HSV-2)
Format: functional
Values reflect log10 of reported MIC (µg/mL).

compound-string: CCc1nn(CCO)c(CC)c1CCCCCCOc1ccc(OC)cc1Cl
log10 MIC: 1.08
--
compound-string: COc1ccc(OCCCCCCc2c(-c3ccccc3)n[nH]c2-c2ccccc2)c(Cl)c1
log10 MIC: 0.48
--
compound-string: CCn1nc(C)c(CCCCCCOc2ccc(OC)cc2Cl)c1C
log10 MIC: -0.15
--
compound-string: CCc1nn(C)c(CC)c1CCCCCCOc1ccc(OC)cc1Cl
log10 MIC: 0.78
--
compound-string: CCOC(=O)Cn1nc(CC)c(CCCCCCOc2ccc(OC)cc2Cl)c1CC
log10 MIC: 0.78
--
compound-string: CCc1nn(-c2ccccn2)c(CC)c1CCCCCCOc1ccc(OC)cc1Cl
log10 MIC: 0.78

log10 MIC for `CCc1n[nH]c(CC)c1CCCCCCOc1ccc(O)cc1Cl` ?
1.08

log10 MIC for `CCCn1nc(C)c(CCCCCCOc2ccc(OC)cc2Cl)c1C` ?
0.18

log10 MIC for `COc1ccc(OCCCCCCc2c(C)nn(C)c2C)c(Cl)c1` ?
-0.15

log10 MIC for `CCc1nn(CCN(C)C)c(CC)c1CCCCCCOc1ccc(OC)cc1Cl` ?
0.78

log10 MIC for `CCc1n[nH]c(CC)c1CCCCOc1ccc(OC)cc1Cl` ?
0.78

log10 MIC for `CCc1nn(C(=O)CCCN2CCOCC2)c(CC)c1CCCCCCOc1ccc(OC)cc1Cl` ?
0.48

log10 MIC for `CCc1n[nH]c(CC)c1CCCCCCOc1ccc(Cl)cc1` ?
0.78

log10 MIC for `COc1ccc(OCCCCCCc2c(C)n[nH]c2C)c(Cl)c1` ?
0.48

log10 MIC for `CCc1nn(-c2ccccc2)c(CC)c1CCCCCCOc1ccc(OC)cc1Cl` ?
0.48

log10 MIC for `CCc1n[nH]c(CC)c1CCCCCCOc1ccc(OC)cc1Cl` ?
0.78

log10 MIC for `CCc1n[nH]c(CC)c1CCCCCOc1ccc(OC)cc1Cl` ?
0.78

log10 MIC for `CCCCn1nc(C)c(CCCCCCOc2ccc(OC)cc2Cl)c1C` ?
0.78
